Protocol Description: ATG_E_Box_CIS: Attagene CIS-FACTORIAL HepG2 Assay for human Enhancer Box (E-box) (AID 2282936)
Condition Parameters: HepG2 E-box cis-reporter transcription, actives raise or lower the signal
The source made the active and inactive calls. Rule for the calls: active = hit-call score of the fitted dose curve at least 0.9, where 1 is the maximum; inactive = score below 0.9.
// classify into yes (1) = active, no (0) = inactive

Identify the outcome logged in this assay for the compound shown: Cc1ccc(-c2ccccc2)cc1
no (0)

Identify the outcome logged in this assay for the compound shown: O=C(CC(=O)c1ccccc1)c1ccccc1
yes (1)

Identify the outcome logged in this assay for the compound shown: C=CCN(CC=C)CC=C
no (0)

Identify the outcome logged in this assay for the compound shown: CCCCCCCCCCCCN1CCCCCC1=O
yes (1)
